All figures here come from patent US20110262445A1.

As shown below, each of these binders has a reported pKd value.
- Test target: T1, human IL-23 (human, UniProt P29460 23-328; Q9NPF7 20-189)
- T1 construct: Recombinant (Ebioscience); HIS-tagged in flow cytometry, biotinylated in some assays; also called hIL-23; rhIL-23
- T1 sequence 1: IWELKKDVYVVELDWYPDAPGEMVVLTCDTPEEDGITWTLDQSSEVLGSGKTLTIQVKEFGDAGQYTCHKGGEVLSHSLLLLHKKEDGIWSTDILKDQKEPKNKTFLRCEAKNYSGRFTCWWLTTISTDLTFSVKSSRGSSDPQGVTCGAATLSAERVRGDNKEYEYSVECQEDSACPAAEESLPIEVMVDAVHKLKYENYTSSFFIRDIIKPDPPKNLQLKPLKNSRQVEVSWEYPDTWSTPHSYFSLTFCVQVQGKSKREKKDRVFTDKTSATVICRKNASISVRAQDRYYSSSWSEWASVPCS
- T1 sequence 2: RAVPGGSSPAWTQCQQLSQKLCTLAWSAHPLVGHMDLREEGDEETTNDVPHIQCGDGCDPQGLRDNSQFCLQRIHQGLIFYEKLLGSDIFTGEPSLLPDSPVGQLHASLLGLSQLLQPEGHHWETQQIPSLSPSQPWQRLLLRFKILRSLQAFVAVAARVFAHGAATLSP
- Experiment: SPR, IgG on Protein A
# log scale: pKd equals minus log10 of the concentration in mol/L

>  <Binder>
Antibody 180 (antibody, human IgG1, kappa, V domains shown) VH: EVQLVQSGAEVKKPGATVKISCKASGYTLSDYYLHWVRQAPEKGLEWMGWIDPENGDTESAPKFQGRVTITADTSTDTGYLELSSLRSEDTAVYYCAANKELRYFDVWGQGTLVTVSS VL: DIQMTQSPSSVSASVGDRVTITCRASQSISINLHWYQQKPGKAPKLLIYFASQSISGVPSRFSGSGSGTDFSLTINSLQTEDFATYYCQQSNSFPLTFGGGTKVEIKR

>  <Val>
10.53

$$$$
>  <Binder>
Antibody 205 (antibody, human IgG1, kappa, V domains shown) VH: QVQLVQSGAEVKKPGASVKVSCKASGYTFTDYYLHWVRQAPGRGLEWMGWIDPENGDTEYAPKFQGRVTMTTDTSTSTAYMELRSLRSDDTAVYYCAANKELRYFDVWGQGTMVTVSS VL: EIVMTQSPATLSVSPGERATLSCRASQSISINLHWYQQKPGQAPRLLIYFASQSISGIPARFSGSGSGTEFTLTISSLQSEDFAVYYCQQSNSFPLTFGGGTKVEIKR

>  <Val>
10.06

$$$$
>  <Binder>
Antibody 192 (antibody, human IgG1, kappa, V domains shown) VH: QVQLVQSGAEVKKPGASVKVSCKASGYTLTDYYLHWVRQAPGQGLEWMGWIDPENGDTEYAPKFQGRVTMTTDTSTSTAYMELRSLRSDDTAVYYCAANKELRYFDVWGQGTMVTVSS VL: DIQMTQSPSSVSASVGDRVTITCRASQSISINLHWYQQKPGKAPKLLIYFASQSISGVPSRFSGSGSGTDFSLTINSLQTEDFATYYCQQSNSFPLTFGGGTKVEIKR

>  <Val>
10.10

$$$$
>  <Binder>
Antibody 190 (antibody, human IgG1, kappa, V domains shown) VH: QVQLVQSGAEVKKPGASVKVSCKASGYTFTDYYLHWVRQAPGQGLEWMGWIDPENGDTEYAPKFQGRVTMTTDTSTSTAYMELRSLRSDDTAVYYCNANKELRYFDVWGQGTMVTVSS VL: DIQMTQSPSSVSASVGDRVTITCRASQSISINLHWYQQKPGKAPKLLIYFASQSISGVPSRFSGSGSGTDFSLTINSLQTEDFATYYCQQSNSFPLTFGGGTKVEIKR

>  <Val>
9.85

$$$$

Then this binder:
Enquiry: Please give the measured pKd for this binder: Antibody 136 (antibody, human IgG1, kappa, V domains shown, Humanized PMA204 (1RZ7 framework)) VH: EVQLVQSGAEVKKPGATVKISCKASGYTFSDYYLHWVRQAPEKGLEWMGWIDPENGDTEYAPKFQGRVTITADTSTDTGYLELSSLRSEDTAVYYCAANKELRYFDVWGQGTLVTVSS VL: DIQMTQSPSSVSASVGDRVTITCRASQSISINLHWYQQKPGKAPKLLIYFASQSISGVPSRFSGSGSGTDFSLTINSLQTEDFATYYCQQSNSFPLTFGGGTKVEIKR
Return: 9.98
